Where a name gives a salt, the structure may show the parent alone.
The molecules below have reported IC50 for LSD1 (Homo sapiens (Human)).
assayMetric: IC50 (nM)

# molecule, unitSymbol, IC50
measured = [
    ("COc1ccc(-c2cnc(N3CCC(NCc4ccc(/C=C/C(=O)NO)cc4)CC3)c(C#N)c2-c2cnc(C#N)c(F)c2)cc1O [Example 249, formate]", "nM", 1.1),
]

P. CC(C)(O)COc1ccc(-c2cnc(N3CCC(NC(C)(C)c4ccc(/C=C/C(=O)NO)cc4)CC3)c(C#N)c2-c2ccc(C#N)c(F)c2)cc1O [Example 223, hydrochloride]
Q. COc1ccc(-c2cnc(N3CCC(NCc4ccc(/C=C/C(=O)NO)cc4)CC3)c(C#N)c2-c2ccc(C#N)cc2)cc1O [Example 118]
# query: argmin of IC50 over P and Q Return value: the label identifying the chosen record.
Q

----------
# assayedTarget: LSD1 (Homo sapiens (Human), UniProt O60341)
# runDescription: In vitro enzyme inhibition assay - LSD1 (HTRF)
# Type: biochemical
Structures can show the parent of a compound that is named as a salt.
assayMetric: IC50 (nM)

# compound, assayedTarget, assayMetric, valueReported
rows = [
    ("N#Cc1ccc(-c2c(-c3ccc(Br)c(O)c3)cnc(N3CCC(NCc4ccc(/C=C/C(=O)NO)cc4)CC3)c2C#N)cc1F [Example 127, formate]", "LSD1 (Homo sapiens (Human), UniProt O60341)", "IC50", 1.2),
]

I. COc1ccc(-c2cnc(N3CCC(NCc4ccc(/C=C(\F)C(=O)NO)cc4)CC3)c(C#N)c2-c2ccc(C#N)nc2)cc1O
II. COc1ccc(-c2cnc(N3CCC(NCc4ccc(/C=C/C(=O)NO)cc4)CC3)c(C)c2-c2ccc(C#N)c(F)c2)cc1O [Example 144, hydrochloride]
III. COc1ccc(-c2cnc(N3CCC(NCCc4ccc(/C=C/C(=O)NO)cc4)CC3)c(C#N)c2-c2ccc(C#N)c(F)c2)cc1O [Example 45, hydrochloride]
IV. COc1ccc(-c2cnc(N3CCC(NCc4ccc(CCC(=O)NO)cc4)CC3)c(C)c2-c2ccc(C#N)c(F)c2)cc1O [Example 209, hydrochloride]
Put the items in order so that reported IC50 rises from first to last. Answer format: the labels, in the requested order.
III, IV, II, I
(III: 0.36 nM, IV: 0.6 nM, II: 1.07 nM, I: 2.37 nM)
